Values from patent US10906894B2

# Tested system: GPR119 (Homo sapiens, UniProt Q8TDV5)
# Sequence (Q8TDV5 whole entry): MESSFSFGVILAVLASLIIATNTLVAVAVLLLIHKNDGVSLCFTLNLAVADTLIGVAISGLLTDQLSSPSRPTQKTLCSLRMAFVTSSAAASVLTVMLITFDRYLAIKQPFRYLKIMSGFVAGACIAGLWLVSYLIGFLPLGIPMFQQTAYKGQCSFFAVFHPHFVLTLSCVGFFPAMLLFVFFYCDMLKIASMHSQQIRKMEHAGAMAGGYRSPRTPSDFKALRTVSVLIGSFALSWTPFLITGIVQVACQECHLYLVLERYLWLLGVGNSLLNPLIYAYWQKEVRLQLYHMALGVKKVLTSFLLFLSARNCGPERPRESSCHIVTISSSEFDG
# Test protocol: LANCE Ultra cAMP assay: stimulation of GPR119-mediated cAMP production in CHO cells stably expressing human GPR119 receptor
# Format: cell-based
# Particulars: CHO; Table B-2 entries 15-39; modified protocol, 500 cells/well; read-out: % cAMP Max.
Readout label: Emax (%)
Answers are plain numbers, in %.

Example entries begin here.
> print(dat)
                           substance.smiles  observed
1  CCc1ccnc(N2CC[C@H](COc3ccc(-c4ccc5c(c4)OC[S@+]5[O-])cc3F)C2)n1        64
2  CC(C)c1cnc(N2CCC(COc3ccc(-c4ccc5c(c4)OC[S@+]5[O-])cc3F)CC2)nc1        74
3  COc1cnc(N2CCC(COc3ccc(-c4ccc5c(c4)OC[S@@+]5[O-])cc3F)CC2)nc1        66

Please turn your attention to the following entry.
What value of Emax has been recorded for this entry: CCc1cnc(N2CCC(COc3ccc(-c4ccc5c(c4)OC[S@+]5[O-])cc3F)CC2)nc1
73
